System: MDA-MB-468 breast
Assay: NCI-60 one-dose screen, 48 h (100 = growth as untreated, 0 = no growth, -100 = all killed)
Settings: 10 µM unless noted
The panel holds about 83,000 compounds, 20% with a hit somewhere; the sample as a whole holds those more often.
Threshold check on growth: strictly below 80% is fulfilled; on or above 80% is not fulfilled.

Could you please tell me whether growth recorded for O=C(Nc1ncc(Cc2ccccc2)s1)c1ccc2c(c1)OCCCO2 is less than 80%? fulfilled

----------
Hi there, I'd appreciate the recorded growth for every entry that follows.
Tested on: MDA-MB-468 breast
Test: NCI-60 one-dose screen, 48 h (100 = growth as untreated, 0 = no growth, -100 = all killed)
Conditions: 10 µM unless noted
This is part of a sample that, as a whole, favours compounds with a hit. Of some 83,000 tested, about 20% had one in any assay.
Answers are plain numbers, in %.

// for each molecule below, give its growth
1. CCCCCC(/C=N\NC(=S)N/N=C/C(=C/c1ccccc1)CCCCC)=C\c1ccccc1
2. CCCC/C=N/NC(=S)NCc1ccccc1
3. Oc1cccc(-c2nc(N3CCOCC3)c3c4c(sc3n2)CCCC4)c1

[47.4, 93, 46.1]

// for each molecule below, give its growth
1. CN(C)C(=O)Nc1nc2cc(Cl)c(Cl)cc2[nH]1
2. Oc1ccccc1/C=N/Nc1ccc2ccccc2n1
3. N#CSc1c[nH]c2cccc(/C=C/C(=O)/C=C(/C=C/c3cccc4[nH]cc(SC#N)c34)OB(F)F)c12
4. COC(=O)c1ccc(NC(=O)Nc2ccc(C(=O)OC)cc2)cc1
5. CCCCOc1ncnc2nc[nH]c12
6. N#C/C(C(=O)c1ccccc1)=C1/C(=O)Nc2ccc(Br)cc21

[-13.4, 15.1, -32, 97.9, 98.5, 102]

// for each molecule below, give its growth
1. Cc1ccc(C)c(S(=O)(=O)NC2c3ccccc3Oc3ccccc32)c1
2. Cc1cc2c(cc1C)N(C(=O)CCl)CCN2C(=O)CCl
3. O=C(Nc1ccc(N=Cc2c(O)[nH]c3ccccc23)cc1)Nc1nccs1
4. Cc1cc(C(C)(C)C)cc(C)c1CC1=NCCN1
5. CCC(C)CC(N)O (configuration not stated)
6. NC1=NN=C(N)C1=Cc1cc2ccccc2n2nnnc12

1. 85
2. -76
3. -2.28
4. 93.5
5. 94.1
6. 94.8

// for each molecule below, give its growth
1. O=C(CSc1nnc(-c2ccc(NC(=O)c3cccnc3)cc2)o1)Nc1cccc(Br)c1
2. Cc1cc2nc(CO)[nH]c2cc1C

1. 97.3
2. 135

// for each molecule below, give its growth
1. C=C(C)[C@@H]1CC[C@]2(C(=O)N3CCN(C)CC3)CC[C@]3(C)[C@H](CC[C@@H]4[C@@]5(C)C/C(=C/c6ccc(C(F)(F)F)cc6)C(=O)C(C)(C)[C@@H]5CC[C@]43C)[C@@H]12
2. CC(C)(C)OC(=O)CN1CCc2c(sc3ncnc(N/N=C/c4ccccc4Br)c23)C1

[107, 88.5]

// for each molecule below, give its growth
1. CCCn1cnc2c(c1=N)C(c1ccc(OC)cc1)c1sc3c(CC)cccc3c1O2 (configuration not stated)
2. Cc1ccc(N(CC(=O)Nc2ccc(S(=O)(=O)NC3CCN(C)CC3)cc2)S(=O)(=O)c2ccc(Cl)cc2)cc1
3. O=C(O)c1ccc(-n2cc(CNc3cccc(Cl)c3)c(-c3ccc(F)cc3)n2)cc1

1: 39.4; 2: 50.3; 3: 109

// for each molecule below, give its growth
1. COc1ccc(-c2[nH][nH]c(=O)c2-c2nc3ccccc3s2)cc1
2. O=C(NNc1nc2cc(F)c(F)cc2n2c(CN3CC4CNCC4C3)ccc12)c1cnccn1 (configuration not stated)
3. COc1ccc2c(c1)C/C(=C\c1cc(-c3ccc4c(c3)OCO4)n[nH]1)C2=O

119
-4.58
37.8

// for each molecule below, give its growth
1. CN(C)C1CCC(NC2=CC(=O)C=CC2=O)CC1 (configuration not stated)
2. O=C(O)COCC(=O)O
3. C=C(C[n+]1ccccc1)[C@@H]1CC[C@]2(C(=O)OC)CC[C@]3(C)[C@H](CC[C@@H]4[C@@]5(C)CC[C@H](O)C(C)(C)[C@@H]5CC[C@]43C)[C@@H]12
4. OC(CSc1ccccc1)CN1CCN(c2ccc(Cl)cc2)CC1 (configuration not stated)

105
93.6
86.3
86.7

----------
Test system: MDA-MB-468 breast
Assay: NCI-60 one-dose screen, 48 h (100 = growth as untreated, 0 = no growth, -100 = all killed)
Conditions: 10 µM unless noted
The panel holds about 83,000 compounds, 20% with a hit somewhere; the sample as a whole holds those more often.
Classify as follows. Reported growth greater than or equal to 90%: true (1). Reported growth below: false (0).

COMPOUND	CLASSIFICATION
COc1cc2oc(-c3cccc(NC(=O)Nc4ccc5c(c4)OCO5)c3)cc(=O)c2c(OC)c1OC	false (0)
C=CCn1c(C)nc2cc(Nc3nc(N4CCCC4)nc4ccccc34)ccc21	true (1)
Cc1cc(NCCCN(C)C)c2ccc3c(ccc4c(NCCCN(C)C)cc(C)nc43)c2n1	false (0)

Can COc1ccc(-c2cc(-c3nnc(SCC(=O)Nc4ccc(/C(C)=N\O)cc4)o3)c3ccccc3n2)cc1 be said to have growth at or above 90%? true (1)

Can O=C(NCCCl)Nc1nccnc1OCc1ccc(F)cc1 be said to have growth at or above 90%? true (1)

Can O=S(=O)(Oc1ccc(-c2cn3ccoc3n2)cc1)c1cccc(C(F)(F)F)c1 be said to have growth at or above 90%? false (0)

Can CCC(CCC(C)C1CCC2C3CC=C4CC(O)CCC4(C)C3CCC12C)C(C)C (centres undefined) (tested in a mixture with another compound) be said to have growth at or above 90%? true (1)

Can N=c1c2c(=N)n3c(nc2nc2n1-c1ccccc1Sc1ccccc1-2)sc1cc(Cl)ccc13 be said to have growth at or above 90%? false (0)

----------
Test system: MDA-MB-435 melanoma
Assay: NCI-60 one-dose screen, 48 h (100 = growth as untreated, 0 = no growth, -100 = all killed)
Details: 10 µM
About 83,000 compounds went through this panel and 20% of them were active in at least one assay; those are over-represented in the sample as a whole.
ENDPOINT_LABEL: growth (%)
Give bare numbers, in %.

// below: answered compounds
COMPOUND	TEST_VALUE
Fc1ccc(-c2csc(Nc3cccc(Nc4nc(-c5ccc(F)cc5)cs4)c3)n2)cc1	63.1
Cn1cc(/C=C(/SS/C(=C/c2cn(C)c3cccc(C(=O)O)c23)C(=O)O)C(=O)O)c2c(C(=O)O)cccc21	98
Cc1ccc2c(c1)C(=O)/C(=C/c1c[nH]c3ccccc13)S2	43.8
O=C(CC(=O)Nc1ccc(Oc2ncnc3scc(Nc4n[nH]c(=S)s4)c23)cc1)Nc1ccc(Br)cc1	103
COc1cc(C2CC(c3ccccc3)=Nc3c(N)nc(N)nc3N2)ccc1Oc1nc(NCCO)nc(N2CCOCC2)n1 (centres undefined)	102

// for each compound below, give its growth
1. COc1cccc(C(=O)CSc2nc(-c3ccc(OCc4ccccc4)c(OC)c3)c(C#N)c(=O)[nH]2)c1
2. COc1ccc(C2c3sc4ccc(C)cc4c3Oc3nc(N)nc(N)c32)cc1 (centres undefined)
3. O=C(c1ccc(Cl)cc1)C(c1c[nH]c2ccccc12)c1c[nH]c2ccccc12
4. C#CCOc1cc(N(CC)CC)ccc1C(C(=O)NC(C)(C)C)N(C(=O)C1CCc2cc(F)ccc2O1)c1ccc(F)cc1F (centres undefined)

1: 95.7; 2: 9.83; 3: -68.6; 4: 40.6

----------
System: MDA-MB-468 breast
Assay: NCI-60 one-dose screen, 48 h (100 = growth as untreated, 0 = no growth, -100 = all killed)
Settings: 10 µM unless noted
Compounds without any hit were thinned out: in the full panel of roughly 83,000, 20% have a hit. Active and inactive are the calls of the source. How the source made its calls: active means growth percent below 10; inactive means the rest.
Hi there, I'd appreciate the recorded growth for every entry that follows.

COMPOUND	growth
C=CCn1c(SCC(=O)Nc2ccc(C(=O)/C=C/c3ccc(OC)cc3)cc2)nnc1-c1ccccc1	93.9% (inactive)

// for each compound below, give its growth
1. CC(c1ccccc1)N1C(=O)CSC1=S (stereo unspecified)
2. COc1ccc(CCCc2c3[n+](cc4c(OC)c(OC)ccc24)CCc2cc4c(cc2-3)OCO4)cc1
3. COc1ccc(-c2nc(C#N)c(NCC(c3ccc(Cl)cc3)N3CCCCC3)o2)cc1 (stereo unspecified)
4. CCN(CC)c1ccc2cc(C(Nc3ccc(Br)c(C(F)(F)F)c3)c3nnnn3C(C)(C)C)c(=O)oc2c1 (stereo unspecified)
5. CCOCc1nc2ccccc2c(=O)[nH]1
6. N/C(=N\c1nc2ccccc2s1)NC(=O)Nc1ccccc1

1: -5.47% (active); 2: 1.74% (active); 3: 93.3% (inactive); 4: 118% (inactive); 5: 98.7% (inactive); 6: 31.4% (inactive)

// for each compound below, give its growth
1. NC(=O)c1ccccc1NC(=O)c1ccccc1Cl
2. Cc1n[nH]c2ccc(Br)cc2c1=O
3. NC1=NC(c2ccc(Cl)cc2)C2=C(N1)/C(=C/c1ccc(Cl)cc1)CCC2 (stereo unspecified)
4. COc1ccc(-c2nc3c(N)c(CO)c(C)nc3o2)cc1

1. 125% (inactive)
2. 99.9% (inactive)
3. 62.2% (inactive)
4. 67.5% (inactive)
